# experiment_description: viability profiling in RPMI8226 myeloma cells – cell-based, resazurin fluorescence, basal, 24 h, PK04 Diversity Set, profiling panel (AID 1180);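 also: RPMI8826 multiple myeloma cell line at 5000 cells per well; test concentration not given here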
# assay_setup: higher = more signal
Parameter: z-score. Scope: all listed entries.

{"columns": ["compound", "z-score"],
 "data": [
  ["COCCOC(=O)N1C(=O)[C@@]2(c3ccccc31)[C@H](c1ccccc1OCCO)N1[C@H](c3ccccc3)[C@H](c3ccccc3)OC(=O)[C@H]1[C@@H]2C(=O)N1CCc2cc(OC)c(OC)cc2C1", 0.186],
  ["COCCOC(=O)N1C(=O)[C@@]2(c3cc(C#CCC(C(=O)OC)C(=O)OC)ccc31)[C@H](C(=O)N1CCCCCCC1)[C@H]1C(=O)O[C@H](c3ccccc3)[C@H](c3ccccc3)N1[C@@H]2c1ccc(O)cc1", 0.646],
  ["CN(C)CCCCCCNC(=O)[C@@H]1C[C@@H]2C(=O)NCC(=O)N2[C@@H]1c1ccc(O)cc1", -1.35],
  ["CC(C)(C)N1CC=CC23O[C@@H]4C=CCCOC(=O)C4[C@H]2C(=O)N(CCCO)[C@@H]3C1=O (stereo partly specified)", -1.15],
  ["NC(=O)NCC#Cc1ccc2c(c1)[C@]1(C(=O)N2)[C@H](c2ccc(O)cc2)N2[C@H](c3ccccc3)[C@H](c3ccccc3)OC(=O)[C@H]2[C@@H]1C(=O)NC[C@H](O)c1ccccc1", 0.82],
  ["[N-]=[N+]=NCc1ccccc1C[C@]1(C(=O)NCCN2CCOCC2)N=C(c2ccc(OCCCO)cc2)O[C@H]1c1ccccc1", 0.166]
]}

====

# target_under_test: Torsin-1A (Homo sapiens)
# experiment_description: TOR1A wild-type binding on microarray – cell lysate, small-molecule microarray, lysate, 635/667 nm, primary screen (AID 1149)
# assay_setup: COS7 hTOR1A-WT lysate, 635 nm fluorescence, higher = more signal
Below: a set of entries, each annotated with reported composite z-score.
property: composite z-score

{"columns": ["molecule", "property", "test_result"],
 "data": [
  ["C=C(/C(=C/C[C@@H](OC(=O)c1ccncc1)c1cccc(OCCO)c1)c1cc(C(=O)OC)ccc1OC)C(C)C", "composite z-score", 0.227],
  ["COCCCNC(=O)[C@]1(Cc2ccccc2CN=[N+]=[N-])N=C(c2ccc(OCCCO)cc2)O[C@@H]1c1ccccc1CN=[N+]=[N-]", "composite z-score", 0.883],
  ["CCC[C@@H]1C[C@@]1(CCC)[C@@H](NC(=O)c1ccco1)c1ccc(Cl)cc1", "composite z-score", -1.5],
  ["[N-]=[N+]=NCc1ccccc1[C@H]1OC(c2ccc(OCCCO)cc2)=N[C@@]1(Cc1ccccc1)C(N)=O", "composite z-score", 0.217],
  ["C=C(/C(=C/C[C@@H](OC(=O)c1ccncc1)c1ccccc1OCCO)c1cnc2ccccc2c1)C(C)C", "composite z-score", 0.799],
  ["COCCOC(=O)N1C(=O)[C@@]2(c3ccccc31)[C@H](c1ccc(OCCO)cc1)N1[C@H](c3ccccc3)[C@H](c3ccccc3)OC(=O)[C@H]1[C@@H]2C(=O)NC[C@H](O)c1ccccc1", "composite z-score", 1.19],
  ["C=C(C(=O)CC[C@H](OC(=O)c1cccnc1)c1ccc(OCCO)cc1)C(C)C", "composite z-score", 1.12],
  ["CC(C)[Si](C#C[Si](C(C)C)(C(C)C)C(C)C)(O[C@H](C)c1cn(Cc2cccc(Cl)c2)nn1)C(C)C", "composite z-score", 0.781],
  ["COc1ccc([Si](C)(C)[C@@H]2[C@@H](CC(=O)N(CCO)Cc3ccccc3)O[C@]3(C(=O)N(C)c4c(Br)cc(C)cc43)[C@H]2C)cc1", "composite z-score", 0.268],
  ["Cc1ccc(-c2cccc(=O)o2)cc1", "composite z-score", -0.495],
  ["CCC[C@@H]1C[C@@]1(CCC)[C@@H](NC(=O)c1cccs1)c1ccc(Cl)cc1", "composite z-score", -0.312],
  ["CC1(C)[C@@H]2CC(C(O)C3C=CC4C(=O)N(c5ccccc5)C(=O)C4N3Nc3ccccc3F)=C[C@@H]1C2 (stereo not given in full)", "composite z-score", 0.233],
  ["NC(=O)NCC#Cc1ccc2c(c1)[C@]1(C(=O)N2)[C@H](c2ccc(OCCO)cc2)N2[C@H](c3ccccc3)[C@H](c3ccccc3)OC(=O)[C@H]2[C@@H]1C(=O)N1CCCCCCC1", "composite z-score", 0.533],
  ["CN(C)C(=O)[C@@]1(CCC(=O)OC(C)(C)C)N=C(c2ccc(OCCCO)cc2)O[C@H]1c1ccccc1N=[N+]=[N-]", "composite z-score", 1.76],
  ["C[C@H]1NC(=O)C([C@@H](C)OCc2ccccc2)NC(=O)[C@@]23C(=O)N[C@@H](Cc4ccccc4)C2[C@H](C)[C@@]2(C)O[C@H]2C3/C=C/CC/C=C/CNC1=O (stereo not given in full)", "composite z-score", -0.0252]
]}

====

# experiment_description: plasmodial surface anion channel blockers, osmotic lysis – cell-based, P. falciparum Indochina, OD700, 18 h, primary screen (AID 1157)
# assay_setup: P. falciparum Indochina infected erythrocytes, osmotic lysis OD700, 18 h; higher = more signal, called active from +8 up or from −8 down
Calls of active or inactive are those of the source.

{"columns": ["compound_structure", "z-score"],
 "data": [
  ["COCC(=C=CC[C@@H](O)c1ccccc1OCCO)C[C@@H](O)COCc1ccccc1", "-1.22 (inactive)"],
  ["O=C1O[C@H](c2ccccc2)[C@H](c2ccccc2)N2[C@H]1[C@@H](C(=O)N1CCN(c3ncccn3)CC1)[C@]1(C(=O)Nc3ccc(C#CCCO)cc31)[C@H]2c1ccccc1OCCO", "0.657 (inactive)"],
  ["COc1ccc([Si](C)(C)[C@@H]2[C@@H](CCO)O[C@]3(C(=O)N(Cc4ccccc4)c4ccc(N5C(=O)COc6ccccc65)cc43)[C@H]2C)cc1", "1.78 (inactive)"]
]}

====

# composite z-score listing for each entry below
# System: Noggin (protein binding on small-molecule microarray)
# experiment_description: small molecules binding Noggin protein – biochemical, 635/667 nm fluorescence, primary screen (AID 1095);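 also: score merges 667 nm feature fluorescence with signal to noise over triplicate slides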
# assay_setup: 635 nm fluorescence, higher = more signal
property: composite z-score

{"columns": ["compound", "test_result"],
 "data": [
  ["Cc1ccc(C(C)CC(O)C2C=CC3C(=O)N(Cc4ccccc4)C(=O)C3N2n2cnnc2)o1 (configuration not stated)", 0.0433],
  ["COc1ccc([Si](C)(C)[C@@H]2[C@@H](CCO)O[C@]3(C(=O)N(Cc4ccc(N5C(=O)c6ccccc6Oc6ccccc65)cc4)c4ccccc43)[C@H]2C)cc1", -0.0905],
  ["COc1cc2c(cc1OC)CN(C(=O)[C@@H]1[C@H]3C(=O)O[C@H](c4ccccc4)[C@H](c4ccccc4)N3[C@H](c3ccc(OCCO)cc3)[C@@]13C(=O)Nc1ccc(C#CCCO)cc13)CC2", 1.46],
  ["CC(C)NC(=O)[C@@H]1c2ccccc2C(=O)N(Cc2cc(C(F)(F)F)cc(C(F)(F)F)c2)[C@H]1c1ccc(CO)cc1", 0.598],
  ["COC(=O)[C@@]1(Cc2ccccc2N=[N+]=[N-])N=C(c2ccc(OCCCO)cc2)O[C@H]1c1ccccc1", 0.314],
  ["C=C(/C(=C/C[C@@H](OC(=O)c1ccncc1)c1ccccc1OCCO)c1cnc2ccccc2c1)C(C)C", 1.91],
  ["COc1cccc(C)c1NC(=O)O[C@H]1[C@H](OC(=O)Nc2ccccc2)[C@H](OC(=O)Nc2ccccc2)[C@@H](OC)O[C@@H]1CO", 0.203]
]}

====

# experiment_description: optical density change of DRC41 E. coli – strain DRC41, OD650, 24 h, E. coli filamentation project, primary screen (AID 1093);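 also: MC1000 strain lacking acrAB efflux and sulA so SOS filamentation is blocked; test concentration not given here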
# assay_setup: E. coli DRC41 growth, higher = more signal, called active from +8 up or from −8 down
Activity calls are given as the source filed them.
Collected z-score values appear next to each entry.

{"columns": ["compound", "z-score"],
 "data": [
  ["CC(C)(C)N1CC=CC23O[C@@H]4C=CCCOC(=O)C4[C@H]2C(=O)N(CCCO)[C@@H]3C1=O (some centres not stated)", "1.04 (inactive)"],
  ["CC(C)[Si](C#C[Si](C(C)C)(C(C)C)C(C)C)(O[C@H](C)c1cn(Cc2cccc(Cl)c2)nn1)C(C)C", "2.18 (inactive)"],
  ["COc1ccc([Si](C)(C)[C@@H]2[C@@H](CCO)O[C@]3(C(=O)N(Cc4cccc(N5C(=O)COc6ccccc65)c4)c4ccccc43)[C@H]2C)cc1", "0.685 (inactive)"],
  ["COC(=O)[C@@]1(Cc2ccccc2)[C@H]2c3cc(C(=O)N(C)C)n(Cc4ccccn4)c3C[C@H]2CN1C(=O)c1ccccc1", "-0.537 (inactive)"],
  ["O=C1O[C@@H](c2ccccc2)[C@@H](c2ccccc2)N2[C@@H](c3ccc(O)cc3)[C@]3(C(=O)Nc4ccc(C#CC5(O)CCCCCC5)cc43)[C@@H](C(=O)N3CCN(c4ncccn4)CC3)[C@H]12", "1.52 (inactive)"],
  ["Cc1ccc(S[C@]2(C(=O)NCC(C)C)CC(=O)N(C3CCCCC3)[C@@H]2c2ccc(CO)cc2I)cc1", "0.12 (inactive)"],
  ["C=C(C)[C@@H]1CC=C(C(O)C2C=CC3C(=O)N(C4CCCCC4)C(=O)C3N2Nc2ccc(OC)cc2)CC1 (some centres not stated)", "-0.357 (inactive)"]
]}
